- assay_protocol: Half life in Sprague-Dawley rat plasma at 10 mg/kg, po by UPLC-MS/MS analysis
- Assay type: ADME, organism-based
experimental_readout: half-life (min)
Write the number in min without appending the unit.

Request: I have this compound here, C[C@H]1[C@@H](O[C@@H]2CC[C@@]3(C)[C@@H](C2)C[C@H](O)[C@@H]2[C@@H]3CC[C@]3(C)[C@@H]([C@H](C)CCC(=O)O)CC[C@@H]23)O[C@@H]2O[C@]3(C)CC[C@H]4[C@H](C)CC[C@@H]1[C@@]24OO3 , and I need its recorded half-life.
Response: 49.4

* * *

- assay_protocol: AUClast in Sprague-Dawley rat plasma at 10 mg/kg, po by UPLC-MS/MS analysis
- Type: ADME, organism-based
- Design: route oral, time 0 - last, dose 10 mg/kg
experimental_readout: AUC(0-t) (ng·h/mL)
Write the number in ng·h/mL without appending the unit.

Request: I have this compound here, C[C@H]1[C@@H](O[C@@H]2CC[C@@]3(C)[C@@H](C2)C[C@H](O)[C@@H]2[C@@H]3CC[C@]3(C)[C@@H]([C@H](C)CCC(=O)O)CC[C@@H]23)O[C@@H]2O[C@]3(C)CC[C@H]4[C@H](C)CC[C@@H]1[C@@]24OO3 , and I need its recorded AUC(0-t).
Response: 4190

* * *

- assay_protocol: Cmax in Sprague-Dawley rat plasma at 10 mg/kg, po by UPLC-MS/MS analysis
- Assay type: ADME, organism-based
- Parameters: route oral, dose 10 mg/kg
experimental_readout: Cmax

Request: I have this molecule here, C[C@H]1[C@@H](O[C@@H]2CC[C@@]3(C)[C@@H](C2)C[C@H](O)[C@@H]2[C@@H]3CC[C@]3(C)[C@@H]([C@H](C)CCC(=O)O)CC[C@@H]23)O[C@@H]2O[C@]3(C)CC[C@H]4[C@H](C)CC[C@@H]1[C@@]24OO3 , and I need its recorded Cmax.
Response: 1110 ng/mL

* * *

- assay_protocol: AUC (0 to infinity) in Sprague-Dawley rat plasma at 10 mg/kg, po by UPLC-MS/MS analysis
- Format: ADME, organism-based
- Design: time infinity, route oral, dose 10 mg/kg
experimental_readout: AUC(0-inf) (ng·h/mL)
Write the number in ng·h/mL without appending the unit.

Request: I have this molecule here, C[C@H]1[C@@H](O[C@@H]2CC[C@@]3(C)[C@@H](C2)C[C@H](O)[C@@H]2[C@@H]3CC[C@]3(C)[C@@H]([C@H](C)CCC(=O)O)CC[C@@H]23)O[C@@H]2O[C@]3(C)CC[C@H]4[C@H](C)CC[C@@H]1[C@@]24OO3 , and I need its recorded AUC(0-inf).
Response: 4430

* * *

- assay_protocol: Half life in Sprague-Dawley rat plasma at 5 mg/kg, iv by UPLC-MS/MS analysis
- Type: ADME, organism-based
experimental_readout: half-life (min)
Write the number in min without appending the unit.

Request: I have this compound here, C[C@H]1[C@@H](O[C@@H]2CC[C@@]3(C)[C@@H](C2)C[C@H](O)[C@@H]2[C@@H]3CC[C@]3(C)[C@@H]([C@H](C)CCC(=O)O)CC[C@@H]23)O[C@@H]2O[C@]3(C)CC[C@H]4[C@H](C)CC[C@@H]1[C@@]24OO3 , and I need its recorded half-life.
Response: 46.4
